Provenance of the data: the supplement of paper PMC9112550

Test system: Escherichia coli TOP10;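 also: peptides expressed intracellularly from a pBAD plasmid library in pooled LB shake-flask culture, induced with 0.3% L-arabinose, DNA abundance read by NGS, three biological replicates, DESeq2 with apeglm shrinkage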
test-details: shrunken log2 fold change of peptide-encoding DNA abundance (4.5 h post-induction vs induction); higher = less antimicrobial activity (less host growth inhibition)
test-settings: time post-induction: 4.5 h; library: site-saturation at positions 5, 18, 19, 20
Listed sequences paired with reported shrunken log2 fold change
parameter: shrunken log2 fold change

RRIRLRPPRLPRPRPRPAFTPRP = 0.238
RRIRCRPPRLPRPRPRPGWNPRP = -0.243
RRIRWRPPRLPRPRPRPSQNPRP = 0.236
RRIRFRPPRLPRPRPRPVQTPRP = 0.0206
RRIRGRPPRLPRPRPRPQYPPRP = -0.865
RRIRMRPPRLPRPRPRPGMKPRP = 0.282
RRIRKRPPRLPRPRPRPVRSPRP = 2.24
RRIRSRPPRLPRPRPRPWHWPRP = 0.211
